Target: Plasmepsin I (Plasmodium falciparum, UniProt P39898)
Sequence (P39898 whole entry): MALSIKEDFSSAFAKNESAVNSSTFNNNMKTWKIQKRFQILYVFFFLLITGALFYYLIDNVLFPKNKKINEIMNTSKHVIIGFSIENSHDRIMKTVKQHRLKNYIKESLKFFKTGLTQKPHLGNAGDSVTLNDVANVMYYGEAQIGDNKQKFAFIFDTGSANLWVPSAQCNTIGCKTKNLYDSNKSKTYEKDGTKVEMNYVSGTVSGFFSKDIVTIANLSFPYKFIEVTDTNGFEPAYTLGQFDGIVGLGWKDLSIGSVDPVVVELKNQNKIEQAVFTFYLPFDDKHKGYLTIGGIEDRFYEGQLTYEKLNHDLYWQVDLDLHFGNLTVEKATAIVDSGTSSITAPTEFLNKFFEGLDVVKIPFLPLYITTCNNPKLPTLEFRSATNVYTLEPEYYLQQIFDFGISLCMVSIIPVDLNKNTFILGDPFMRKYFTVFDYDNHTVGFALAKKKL
Assay: In vitro inhibition of aspartic protease plasmepsin-1 (Plm) of Plasmodium falciparum.
Reported Ki values follow for various molecules
The figure you give is taken to be in nM; do not add the unit.

Worked examples, 6 molecules total:
- smiles_record: "CC(C)C[C@H](NC(=O)[C@H](C)NC(=O)C[C@H](O)[C@H](COCc1ccc(Br)cc1)NC(=O)Cc1cccs1)C(N)=O"
  reported_measurement: 24
- smiles_record: "CC(C)C[C@H](NC(=O)[C@H](C)NC(=O)C[C@H](O)[C@H](COCc1ccccc1)NC(=O)[C@@H](NC(=O)c1ccccn1)C(C)C)C(N)=O"
  reported_measurement: 5.4
- smiles_record: "CC(C)[C@H](NC(=O)c1ccccn1)C(=O)N[C@@H](COCc1ccc(Br)cc1)[C@@H](O)CC(=O)NCc1ccccc1"
  reported_measurement: 3.9
- smiles_record: "CC(C)[C@H](NC(=O)c1ccccn1)C(=O)N[C@@H](COCc1ccc(Br)cc1)[C@@H](O)CC(=O)NC1CCCCC1"
  reported_measurement: 4.1
- smiles_record: "CCCCNC(=O)C[C@H](O)[C@H](COCc1ccc(Br)cc1)NC(=O)[C@@H](NC(=O)c1ccccn1)C(C)C"
  reported_measurement: 8.1
- smiles_record: "COc1cccc(CCNC(=O)C[C@H](O)[C@H](COCc2ccc(Br)cc2)NC(=O)[C@@H](NC(=O)c2ccccn2)C(C)C)c1"
  reported_measurement: 6.7

Ask | # input molecule: CC(C)C[C@H](NC(=O)[C@H](C)NC(=O)C[C@H](O)[C@H](COCc1ccc(Br)cc1)NC(=O)CC(c1ccccc1)c1ccccc1)C(N)=O ; wanted: its Ki
Reply | 40

Ask | # input molecule: CC(C)C[C@H](NC(=O)[C@H](C)NC(=O)C[C@H](O)[C@H](COCc1ccc(Br)cc1)NC(=O)c1ccc2c(c1)OCO2)C(N)=O ; wanted: its Ki
Reply | 29

Ask | # input molecule: O=C(C[C@H](O)[C@H](COCc1ccc(Br)cc1)NC(=O)c1c(F)cc(F)cc1F)NC1CCCCC1 ; wanted: its Ki
Reply | 822

Ask | # input molecule: CC(C)C[C@H](NC(=O)[C@H](C)NC(=O)C[C@H](O)[C@H](COCc1ccc(Br)cc1)NC(=O)[C@@H](NC(=O)c1ccccn1)C(C)C)C(N)=O ; wanted: its Ki
Reply | 0.5

Ask | # input molecule: CC(C)C[C@H](NC(=O)[C@H](C)NC(=O)C[C@H](O)[C@H](CCc1ccccc1)NC(=O)[C@@H](NC(=O)c1ccccn1)C(C)C)C(N)=O ; wanted: its Ki
Reply | 27

Ask | # input molecule: CC(C)[C@H](NC(=O)c1ccccn1)C(=O)N[C@@H](COCc1ccc(Br)cc1)[C@@H](O)CC(=O)NCCCc1ccccc1 ; wanted: its Ki
Reply | 5.4

Ask | # input molecule: CC(C)C[C@H](NC(=O)[C@H](C)NC(=O)C[C@H](O)[C@H](COCc1ccc(Br)cc1)NC(=O)C(c1ccccc1)c1ccccc1)C(N)=O ; wanted: its Ki
Reply | 57

Ask | # input molecule: CC(C)C[C@H](NC(=O)[C@H](C)NC(=O)C[C@H](O)[C@H](COCc1ccc(Br)cc1)NC(=O)[C@H](NC(=O)c1ccccn1)C(C)C)C(N)=O ; wanted: its Ki
Reply | 6.4

Ask | # input molecule: CC(C)C[C@H](NC(=O)[C@H](C)NC(=O)C[C@H](O)[C@H](COCc1ccc(Br)cc1)NC(=O)c1c(F)cc(F)cc1F)C(N)=O ; wanted: its Ki
Reply | 3.4

Ask | # input molecule: COc1cccc(CCNC(=O)C[C@H](O)[C@H](COCc2ccc(Br)cc2)NC(=O)c2c(F)cc(F)cc2F)c1 ; wanted: its Ki
Reply | 619

###

Molecular target: Cathepsin D (Homo sapiens, UniProt P07339)
Sequence (P07339 65-162 limits assumed): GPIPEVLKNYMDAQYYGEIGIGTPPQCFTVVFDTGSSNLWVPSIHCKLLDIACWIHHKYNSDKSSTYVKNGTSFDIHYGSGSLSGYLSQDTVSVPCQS
Sequence (P07339 169-412 limits assumed): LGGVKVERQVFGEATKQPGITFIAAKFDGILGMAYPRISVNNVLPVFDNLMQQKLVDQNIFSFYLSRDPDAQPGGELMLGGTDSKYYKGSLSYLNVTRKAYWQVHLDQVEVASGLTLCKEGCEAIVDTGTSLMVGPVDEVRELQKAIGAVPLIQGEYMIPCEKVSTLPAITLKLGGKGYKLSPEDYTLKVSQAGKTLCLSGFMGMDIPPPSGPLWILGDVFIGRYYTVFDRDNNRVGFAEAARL
pKi: −log10 of the molar value.
Classify as follows. Reported pKi greater than or equal to 7: Yes. Reported pKi below: No.

- smiles_record: "CC(C)C[C@H](NC(=O)[C@H](C)NC(=O)C[C@H](O)[C@H](COCc1ccc(Br)cc1)NC(=O)c1ccc(Cl)c(Cl)c1)C(N)=O"
  category_label: "No"
- smiles_record: "CC(C)[C@H](NC(=O)c1ccccn1)C(=O)N[C@@H](COCc1ccc(Br)cc1)[C@@H](O)CC(=O)NC1CCCCC1"
  category_label: "No"
- smiles_record: "CC(C)C[C@H](NC(=O)[C@H](C)NC(=O)C[C@H](O)[C@H](COCc1ccc(Br)cc1)NC(=O)C(c1ccccc1)c1ccccc1)C(N)=O"
  category_label: "Yes"
- smiles_record: "CC(C)[C@H](NC(=O)c1ccccn1)C(=O)N[C@@H](COCc1ccc(Br)cc1)[C@@H](O)CC(=O)NCCCc1ccccc1"
  category_label: "No"

Okay, now this compound:
Ask | Say whether CC(C)C[C@H](NC(=O)[C@H](C)NC(=O)C[C@H](O)[C@H](COCc1ccc(Br)cc1)NC(=O)Cc1cccs1)C(N)=O shows pKi of 7 or more.
Reply | Yes

###

Biological target: Plasmepsin II (Plasmodium falciparum)
Sequence (P46925 whole entry): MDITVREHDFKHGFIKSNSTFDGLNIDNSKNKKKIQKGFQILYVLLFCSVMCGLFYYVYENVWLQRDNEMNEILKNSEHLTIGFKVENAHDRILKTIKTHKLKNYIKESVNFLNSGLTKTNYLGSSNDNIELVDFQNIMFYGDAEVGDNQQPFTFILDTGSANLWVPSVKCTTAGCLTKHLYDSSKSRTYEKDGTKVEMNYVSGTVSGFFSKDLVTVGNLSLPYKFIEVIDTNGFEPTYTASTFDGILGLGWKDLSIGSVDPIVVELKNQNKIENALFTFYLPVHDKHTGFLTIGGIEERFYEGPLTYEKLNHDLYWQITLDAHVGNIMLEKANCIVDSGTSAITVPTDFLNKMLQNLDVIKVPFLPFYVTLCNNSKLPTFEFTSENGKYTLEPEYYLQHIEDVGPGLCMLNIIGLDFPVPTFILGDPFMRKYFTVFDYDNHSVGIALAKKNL
Threshold-based label: Ki under 100 nM gives yes, Ki not under 100 nM gives no.

- smiles_record: "O=C(C[C@H](O)[C@H](COCc1ccc(Br)cc1)NC(=O)c1c(F)cc(F)cc1F)NC1CCCCC1"
  category_label: "no"

Ask | # TODO verify Ki < 100 nM strictly for this compound: CC(C)C[C@H](NC(=O)[C@H](C)NC(=O)C[C@H](O)[C@H](COCc1ccc(Br)cc1)NC(=O)c1ccc2c(c1)OCO2)C(N)=O
Reply | no

Ask | # TODO verify Ki < 100 nM strictly for this compound: COCCCNC(=O)C[C@H](O)[C@H](COCc1ccc(Br)cc1)NC(=O)[C@@H](NC(=O)c1ccccn1)C(C)C
Reply | no

Ask | # TODO verify Ki < 100 nM strictly for this compound: CC(C)C[C@H](NC(=O)[C@H](C)NC(=O)C[C@H](O)[C@H](COCc1ccccc1)NC(=O)[C@@H](NC(=O)c1ccccn1)C(C)C)C(N)=O
Reply | yes

Ask | # TODO verify Ki < 100 nM strictly for this compound: CC(C)C[C@H](NC(=O)[C@H](C)NC(=O)C[C@H](O)[C@H](COCc1ccc(Br)cc1)NC(=O)c1c(F)cc(F)cc1F)C(N)=O
Reply | yes

Ask | # TODO verify Ki < 100 nM strictly for this compound: CC(C)C[C@H](NC(=O)[C@H](C)NC(=O)C[C@H](O)[C@H](COCc1ccc(Br)cc1)NC(=O)C(c1ccccc1)c1ccccc1)C(N)=O
Reply | no

###

Test system: Plasmodium falciparum
Experiment: Growth inhibition of Plasmodium falciparum infected human erythrocytes at 5 uM
Assay type: functional
Classify as follows. Reported inhibition at 5 µM greater than or equal to 20%: true. Reported inhibition at 5 µM below: false.

- smiles_record: "CC(C)C[C@H](NC(=O)[C@H](C)NC(=O)C[C@H](O)[C@H](CCc1ccccc1)NC(=O)[C@@H](NC(=O)c1ccccn1)C(C)C)C(N)=O"
  category_label: "true"
- smiles_record: "CC(C)[C@H](NC(=O)c1ccccn1)C(=O)N[C@@H](COCc1ccc(Br)cc1)[C@@H](O)CC(=O)NC1CCCCC1"
  category_label: "true"
- smiles_record: "CC(C)C[C@H](NC(=O)[C@H](C)NC(=O)C[C@H](O)[C@H](COCc1ccccc1)NC(=O)[C@@H](NC(=O)c1ccccn1)C(C)C)C(N)=O"
  category_label: "true"
- smiles_record: "CC(C)C[C@H](NC(=O)[C@H](C)NC(=O)C[C@H](O)[C@H](COCc1ccc(Br)cc1)NC(=O)[C@@H]1Cc2ccccc2N1)C(N)=O"
  category_label: "false"
- smiles_record: "CC(C)C[C@H](NC(=O)[C@H](C)NC(=O)C[C@H](O)[C@H](COCc1ccc(Br)cc1)NC(=O)C(c1ccccc1)c1ccccc1)C(N)=O"
  category_label: "false"
- smiles_record: "COc1cccc(CCNC(=O)C[C@H](O)[C@H](COCc2ccc(Br)cc2)NC(=O)[C@@H](NC(=O)c2ccccn2)C(C)C)c1"
  category_label: "true"
- smiles_record: "CC(C)C[C@H](NC(=O)[C@H](C)NC(=O)C[C@H](O)[C@H](COCc1ccc(Br)cc1)NC(=O)[C@H](NC(=O)c1ccccn1)C(C)C)C(N)=O"
  category_label: "true"

Okay, now this molecule:
Ask | Say whether CC(C)[C@H](NC(=O)c1ccccn1)C(=O)N[C@@H](COCc1ccc(Br)cc1)[C@@H](O)CC(=O)NCCNc1ccccc1 shows inhibition at 5 µM of 20% or more.
Reply | true

Hey, just so you know, these numbers are from ChEMBL document CHEMBL1148335.
